Molecular target: human FSH receptor (Homo sapiens)
Construct: ATCC), line rhFSHR-cLUC
Sequence (P23945 18-695): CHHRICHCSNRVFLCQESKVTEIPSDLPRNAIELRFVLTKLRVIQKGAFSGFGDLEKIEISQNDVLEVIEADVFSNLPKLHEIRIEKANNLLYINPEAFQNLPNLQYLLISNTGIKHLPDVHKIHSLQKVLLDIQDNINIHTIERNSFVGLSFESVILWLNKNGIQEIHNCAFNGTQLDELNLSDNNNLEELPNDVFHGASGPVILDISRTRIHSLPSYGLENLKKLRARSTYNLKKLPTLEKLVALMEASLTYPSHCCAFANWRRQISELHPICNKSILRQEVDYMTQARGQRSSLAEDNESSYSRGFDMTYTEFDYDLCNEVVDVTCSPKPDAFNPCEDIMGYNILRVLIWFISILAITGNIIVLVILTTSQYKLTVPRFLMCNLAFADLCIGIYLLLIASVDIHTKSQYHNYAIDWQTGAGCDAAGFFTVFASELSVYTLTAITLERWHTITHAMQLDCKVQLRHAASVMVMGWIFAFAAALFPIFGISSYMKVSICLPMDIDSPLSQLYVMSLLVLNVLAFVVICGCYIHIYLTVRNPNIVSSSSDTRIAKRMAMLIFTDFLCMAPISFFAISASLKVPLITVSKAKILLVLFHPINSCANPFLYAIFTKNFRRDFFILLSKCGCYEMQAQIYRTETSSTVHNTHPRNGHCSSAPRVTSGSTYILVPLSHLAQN
Assay: hFSHR CHO cAMP assay (rhFSHR-cLUC cells, FSH-stimulated cAMP, radioimmunoassay)
Details: inhibition of cAMP produced by EC70 dose of FSH (4.85 nM); maximum concentration 50 μM
measured_property: pEC50
Answers are plain numbers, as −log10 of the molar value.

Here are 4 compounds together with their reported answers.
[
  {
    "compound": "CCN(CC)Cc1ccc(CNC(=O)CN(C[C@@H](C)c2ccccc2)S(=O)(=O)c2ccc(-c3ccccc3C)cc2)cc1 [Compound 475]",
    "measured_property": "pEC50",
    "obs_value": 5.02
  },
  {
    "compound": "Cc1ccccc1-c1ccc(S(=O)(=O)N(CC(=O)NCc2ccc(CN)cc2)CC(C)c2ccccc2)cc1 (centres unmarked) [Compound 311]",
    "measured_property": "pEC50",
    "obs_value": 7.30
  },
  {
    "compound": "COc1ccccc1CCN(CC(=O)NCCCCCCN)S(=O)(=O)c1ccc(-c2ccccc2Cl)cc1 [Compound 353]",
    "measured_property": "pEC50",
    "obs_value": 6.85
  },
  {
    "compound": "COc1cccc(-c2ccc(S(=O)(=O)N(CCc3ccccc3OC)CC(=O)NCc3ccc(CN)cc3)cc2)c1 [Compound 16]",
    "measured_property": "pEC50",
    "obs_value": 5.95
  }
]

Hi there! I need pEC50 for each item below, if you can.
1. C[C@H](CN(CC(=O)NCCCCCCN)S(=O)(=O)c1ccc(-c2cccc(F)c2)cc1)c1ccccc1 [Compound 401]
2. COc1ccccc1CCN(CC(=O)NCCCCCCN)S(=O)(=O)c1ccc(-c2ccc(Cl)cc2Cl)cc1 [Compound 355]

[5.87, 6.40]

Hi there! I need pEC50 for each item below, if you can.
1. C[C@H](CN(CC(=O)NCc1ccc(CN)cc1)S(=O)(=O)c1ccc(-c2cccc(F)c2)cc1)c1ccccc1 [Compound 213]
2. COc1ccccc1CCN(CC(=O)N1CCNCC1)S(=O)(=O)c1ccc(-c2ccccc2C)cc1 [Compound 151]
3. Cc1ccccc1-c1ccc(S(=O)(=O)N(CC(=O)NCc2ccc(CN)cc2)C[C@@H](C)c2ccccc2)cc1 [Compound 215]

[7.15, 5.01, 7.10]

---

Molecular target: human FSH receptor (Homo sapiens)
Construct: ATCC), line rhFSHR-cLUC
Assay: hFSHR CHO cAMP assay (rhFSHR-cLUC cells, FSH-stimulated cAMP, radioimmunoassay)
Settings: inhibition of cAMP produced by EC70 dose of FSH (4.85 nM); maximum concentration 50 μM
Please note: EC50 exactly at 1 µM is No. Only values below 1 µM get Yes.

[
  {
    "compound": "C[C@H](CN(CC(=O)NCc1ccc(CN)cc1)S(=O)(=O)c1ccc(-c2ccccc2Cl)cc1)c1ccccc1 [Compound 208]",
    "class_name": "Yes"
  },
  {
    "compound": "Cc1ccccc1-c1ccc(S(=O)(=O)N(CC(=O)NCc2ccc(CN(C)C)cc2)C[C@@H](C)c2ccccc2)cc1 [Compound 474]",
    "class_name": "No"
  },
  {
    "compound": "COc1ccccc1CCN(CC(=O)NCc1ccc(CN)cc1)S(=O)(=O)c1ccc(-c2cccc(F)c2)cc1 [Compound 14]",
    "class_name": "Yes"
  },
  {
    "compound": "Cc1ccccc1-c1ccc(S(=O)(=O)N(CC(=O)NCC2CCCC(CN)C2)C[C@H](C)c2ccccc2)cc1 (some centres unmarked) [Compound 384]",
    "class_name": "Yes"
  },
  {
    "compound": "C[C@@H](CN(CC(=O)NCc1ccc(CN)cc1)C(=O)Nc1ccc(-c2ccccc2)cc1)c1ccccc1 [Compound 590]",
    "class_name": "No"
  },
  {
    "compound": "COc1ccccc1CCN(CC(=O)NCC1CCC(CN)CC1)S(=O)(=O)c1ccc(-c2cccc(C(F)(F)F)c2)cc1 (centres unmarked) [Compound 29]",
    "class_name": "No"
  },
  {
    "compound": "COc1ccccc1CCN(CC(=O)NCC1CCC(CN)CC1)S(=O)(=O)c1ccc(-c2ccccc2Cl)cc1 (centres unmarked) [Compound 31]",
    "class_name": "Yes"
  },
  {
    "compound": "COc1ccccc1CCN(CC(=O)NC1CCC(N)CC1)S(=O)(=O)c1ccc(-c2ccccc2C)cc1 (centres unmarked) [Compound 94]",
    "class_name": "No"
  }
]

Say whether its EC50 is strictly beneath 1 µM. Entry: C[C@H](CN(CC(=O)NCC1CCCC(CN)C1)S(=O)(=O)c1ccc(-c2ccccc2Cl)cc1)c1ccccc1 (some centres unmarked) [Compound 388]
Yes

Say whether its EC50 is strictly beneath 1 µM. Entry: C[C@@H](CN(CC(=O)NCc1ccc(CN)cc1)S(=O)(=O)c1ccc(-c2ccccc2Cl)cc1)c1ccccc1 [Compound 198]
Yes

Say whether its EC50 is strictly beneath 1 µM. Entry: COc1ccccc1CCN(CC(=O)NCc1cccc(CN)c1)S(=O)(=O)c1ccc(-c2ccccc2C)cc1 [Compound 344]
Yes

Say whether its EC50 is strictly beneath 1 µM. Entry: COc1ccccc1CCN(CC(=O)NCC1CCCC(CN)C1)S(=O)(=O)c1ccc(-c2ccc(Cl)cc2Cl)cc1 (centres unmarked) [Compound 339]
No

---

Target: human FSH receptor (Homo sapiens, UniProt P23945)
Construct: ATCC), line rhFSHR-cLUC
Assay: hFSHR CHO cAMP assay (rhFSHR-cLUC cells, FSH-stimulated cAMP, radioimmunoassay)
Settings: inhibition of cAMP produced by EC70 dose of FSH (4.85 nM); maximum concentration 50 μM
Protocol: Minimum Essential Medium-Alpha (MEM-alpha), fetal bovine serum (FBS), penicillin, streptomycin, geneticin, trypsin-EDTA, Hanks' Balanced Salt Solution (no Calcium chloride, Magnesium chloride, Magnesium sulfate, or phenol red; Ca-Mg free HBSS) were purchased from Gibco BRL (Gaithersburg, Md.). […] EC50 values were calculated from an analysis of the concentration-inhibition data using a linear analysis of the data transformed to a log-logit format.
measured_property: pEC50
One number for each entry, as −log10 of the molar value.

Here are 5 molecules together with their reported answers.
[
  {
    "molecule": "C[C@@H](CN(CC(=O)NCc1ccc(CN)cc1)S(=O)(=O)c1ccc(C(C)(C)C)cc1)c1ccccc1 [Compound 555]",
    "pEC50": 5.71
  },
  {
    "molecule": "COc1ccccc1CCN(CC(=O)NCC1CCC(CN)CC1)S(=O)(=O)c1ccc(-c2ccccc2C)cc1 (stereo not drawn) [Compound 32]",
    "pEC50": 6.51
  },
  {
    "molecule": "COc1ccccc1CN(CC(=O)NCC1CCCC(CN)C1)S(=O)(=O)c1ccc(-c2ccccc2Cl)cc1 (stereo not drawn) [Compound 341]",
    "pEC50": 6.24
  },
  {
    "molecule": "COc1ccccc1CN(CC(=O)NCC1CCCC(CN)C1)S(=O)(=O)c1ccc(-c2ccc(Cl)cc2Cl)cc1 (stereo not drawn) [Compound 343]",
    "pEC50": 6.28
  },
  {
    "molecule": "COc1ccccc1CCN(CC(=O)NCC1CCC(CN)CC1)S(=O)(=O)c1ccc(-c2ccccc2OC)cc1 (stereo not drawn) [Compound 33]",
    "pEC50": 6.38
  }
]

Hi there! I need pEC50 for each item below, if you can.
1. COc1ccccc1CCN(CC(=O)NCC1CCCC(CN)C1)S(=O)(=O)c1ccc(-c2ccccc2Cl)cc1 (stereo not drawn) [Compound 337]
2. CC(CN(CC(=O)NC1CCC(CC2CCC(N)CC2)CC1)S(=O)(=O)c1ccc(-c2ccccc2Cl)cc1)c1ccccc1 (stereo not drawn) [Compound 497]
3. C[C@@H](CN(CC(=O)NCCCCCCN)S(=O)(=O)c1ccc(-c2ccccc2Cl)cc1)c1ccccc1 [Compound 397]
4. Cc1ccccc1-c1ccc(S(=O)(=O)N(CC(=O)NCc2ccc(CN)cc2)C2CC2c2ccccc2)cc1 (stereo not drawn) [Compound 320]
5. Cc1ccccc1-c1ccc(S(=O)(=O)N(CC(=O)NCc2cccc(CN)c2)C[C@H](C)c2ccccc2)cc1 [Compound 390]
6. COc1cccc(CN(CC(=O)NCC2CCC(CN)CC2)S(=O)(=O)c2ccc(-c3cccc(OC)c3)cc2)c1 (stereo not drawn) [Compound 24]
7. C[C@@H](CN(CC(=O)NCc1ccc(CN)cc1)S(=O)(=O)c1ccc(-c2cccc(F)c2)cc1)c1ccccc1 [Compound 203]
8. COc1ccc(CCN(CC(=O)NCCCCCCN)S(=O)(=O)c2ccc(-c3ccccc3Cl)cc2)cc1 [Compound 502]

6.51
5.39
7.30
5.59
6.64
5.63
7.10
6.52

Can you look up the measured pEC50 of C[C@@H](CN(CC(=O)NCC1CCCC(CN)C1)S(=O)(=O)c1ccc(-c2cccc(F)c2)cc1)c1ccccc1 (stereo partly drawn) [Compound 386] for me?
5.93
